Cited source for all entries: ChEMBL document CHEMBL4680236

Test system: Staphylococcus aureus
Assay: Bactericidal activity against MLSB/methicillin-resistant Staphylococcus aureus 15B196
Type: functional
Property Label: MBC

Tell me the measured MBC of CC[C@H]1OC(=O)[C@H](C)[C@@H](OC(=O)Cc2ccccn2)[C@H](C)[C@@H](O[C@@H]2O[C@H](C)C[C@H](N(C)C)[C@H]2O)[C@](C)(OC(=O)CCNCC#Cc2cnc3ccccc3c2)C[C@@H](C)CN(C)[C@H](C)[C@@H](O)[C@]1(C)O , please.
> 256 µg/mL

---

Can you tell me fold change (FC) for the items I'm about to list?
Test system: Staphylococcus aureus
Assay: Antibacterial activity against MLSB/methicillin/ciprofloxacin-resistant Staphylococcus aureus PU32 harboring ermA gene assessed as reduction in microbial growth relative to ciprofloxacin
Format: functional
Just the number.

Provide the documented fold change (FC) with Staphylococcus aureus as the system for CC[C@H]1OC(=O)[C@H](C)[C@@H](OC(=O)Cc2ccccn2)[C@H](C)[C@@H](O[C@@H]2O[C@H](C)C[C@H](N(C)C)[C@H]2O)[C@](C)(OC(=O)CCN2CCN(c3c(F)cc4c(=O)c(C(N)=O)cn(C5CC5)c4c3OC)CC2C)C[C@@H](C)CN(C)[C@H](C)[C@@H](O)[C@]1(C)O (stereo partly drawn)
0.14

Provide the documented fold change (FC) with Staphylococcus aureus as the system for CC[C@H]1OC(=O)[C@H](C)[C@@H](O[C@H]2C[C@@](C)(OC)[C@@H](O)[C@H](C)O2)[C@H](C)[C@@H](O[C@@H]2O[C@H](C)C[C@H](N(C)C)[C@H]2O)[C@](C)(OC)C[C@@H](C)C(=O)[C@H](C)[C@@H](O)[C@]1(C)O [CLARITHROMYCIN]
0.11

Provide the documented fold change (FC) with Staphylococcus aureus as the system for CC[C@H]1OC(=O)[C@H](C)[C@@H](O[C@H]2C[C@@](C)(OC)[C@@H](O)[C@H](C)O2)[C@H](C)[C@@H](O[C@@H]2O[C@H](C)C[C@H](N(C)C)[C@H]2O)[C@](C)(O)C[C@@H](C)CN(C)[C@H](C)[C@@H](O)[C@]1(C)O [AZITHROMYCIN]
0.22

---

Test system: Staphylococcus aureus
Test: Bactericidal activity against MLSB/methicillin-resistant Staphylococcus aureus 15B196
Format: functional
Can you tell me MBC for the items I'm about to list?

Tell me the measured MBC of CC[C@H]1OC(=O)[C@H](C)[C@@H](OC(=O)Cc2ccccn2)[C@H](C)[C@@H](O[C@@H]2O[C@H](C)C[C@H](N(C)C)[C@H]2O)[C@](C)(OC(=O)CCN2CCN(c3cc4c(cc3F)c(=O)c(C(N)=O)cn4C3CC3)CC2)C[C@@H](C)CN(C)[C@H](C)[C@H]2OC(=O)O[C@@]21C , please.
> 256 µg/mL

Tell me the measured MBC of CC[C@H]1OC(=O)[C@H](C)[C@@H](O[C@H]2C[C@@](C)(OC)[C@@H](O)[C@H](C)O2)[C@H](C)[C@@H](O[C@@H]2O[C@H](C)C[C@H](N(C)C)[C@H]2O)[C@](C)(O)C[C@@H](C)CN(C)[C@H](C)[C@@H](O)[C@]1(C)O [AZITHROMYCIN] , please.
> 256 µg/mL

Tell me the measured MBC of CC[C@H]1OC(=O)[C@H](C)[C@@H](OC(=O)Cc2ccccn2)[C@H](C)[C@@H](O[C@@H]2O[C@H](C)C[C@H](N(C)C)[C@H]2O)[C@](C)(OC(=O)CCN2CCN(c3c(F)cc4c(=O)c(C(N)=O)cn(C5CC5)c4c3OC)CC2C)C[C@@H](C)CN(C)[C@H](C)[C@@H](O)[C@]1(C)O (stereo not given in full) , please.
8 µg/mL

Tell me the measured MBC of CC[C@H]1OC(=O)[C@H](C)[C@@H](OC(=O)Cc2ccccn2)[C@H](C)[C@@H](O[C@@H]2O[C@H](C)C[C@H](N(C)C)[C@H]2O)[C@](C)(OC(=O)CCNCCC#Cc2ccc3[nH]ccc(=O)c3c2)C[C@@H](C)CN(C)[C@H](C)[C@@H](O)[C@]1(C)O , please.
> 256 µg/mL

Tell me the measured MBC of CC[C@H]1OC(=O)[C@H](C)[C@@H](OC(=O)Cc2ccccn2)[C@H](C)[C@@H](O[C@@H]2O[C@H](C)C[C@H](N(C)C)[C@H]2O)[C@](C)(OC(=O)CCNCCC#Cc2ccc3c(c2)c(=O)c(C(=O)NC)cn3C2CC2)C[C@@H](C)CN(C)[C@H](C)[C@@H](O)[C@]1(C)O , please.
> 256 µg/mL

---

System: Haemophilus influenzae
Test: Ratio of MBC to MIC against azithromycin-susceptible Haemophilus influenzae ATCC 49247
Format: functional
Property Label: Ratio
Just the number.

Tell me the measured Ratio of CC[C@H]1OC(=O)[C@H](C)[C@@H](OC(=O)Cc2ccccn2)[C@H](C)[C@@H](O[C@@H]2O[C@H](C)C[C@H](N(C)C)[C@H]2O)[C@](C)(OC(=O)CCNC/C=C/c2cnc3ccccc3c2)C[C@@H](C)CN(C)[C@H](C)[C@@H](O)[C@]1(C)O , please.
2

Tell me the measured Ratio of CC[C@H]1OC(=O)[C@H](C)[C@@H](OC(=O)Cc2ccccn2)[C@H](C)[C@@H](O[C@@H]2O[C@H](C)C[C@H](N(C)C)[C@H]2O)[C@](C)(OC(=O)CCNCCCNc2cc3c(=O)c(C(=O)O)cn(C4CC4)c3cc2Cl)C[C@@H](C)CN(C)[C@H](C)[C@@H](O)[C@]1(C)O , please.
4

Tell me the measured Ratio of CC[C@H]1OC(=O)[C@H](C)[C@@H](OC(=O)Cc2ccccn2)[C@H](C)[C@@H](O[C@@H]2O[C@H](C)C[C@H](N(C)C)[C@H]2O)[C@](C)(OC(=O)CCNCCC#Cc2ccc3c(c2)c(=O)c(C(=O)O)cn3C2CC2)C[C@@H](C)CN(C)[C@H](C)[C@H]2OC(=O)O[C@@]21C , please.
2

Tell me the measured Ratio of CC[C@H]1OC(=O)[C@H](C)[C@@H](OC(=O)Cc2ccccn2)[C@H](C)[C@@H](O[C@@H]2O[C@H](C)C[C@H](N(C)C)[C@H]2O)[C@](C)(OC(=O)CCNCC#Cc2cnc3ccccc3c2)C[C@@H](C)CN(C)[C@H](C)[C@@H](O)[C@]1(C)O , please.
1

Tell me the measured Ratio of CC[C@H]1OC(=O)[C@H](C)[C@@H](OC(=O)Cc2ccccn2)[C@H](C)[C@@H](O[C@@H]2O[C@H](C)C[C@H](N(C)C)[C@H]2O)[C@](C)(OC(=O)CCNCCC#Cc2ccc3c(c2)c(=O)c(C(N)=O)cn3C2CC2)C[C@@H](C)CN(C)[C@H](C)[C@H]2OC(=O)O[C@@]21C , please.
2

Tell me the measured Ratio of CC[C@H]1OC(=O)[C@H](C)[C@@H](OC(=O)Cc2ccccn2)[C@H](C)[C@@H](O[C@@H]2O[C@H](C)C[C@H](N(C)C)[C@H]2O)[C@](C)(OC(=O)CCN2CCN(c3cc4c(cc3F)c(=O)c(C(=O)O)cn4C3CC3)CC2)C[C@@H](C)CN(C)[C@H](C)[C@@H](O)[C@]1(C)O , please.
1

Tell me the measured Ratio of CC[C@H]1OC(=O)[C@H](C)[C@@H](OC(=O)Cc2ccccn2)[C@H](C)[C@@H](O[C@@H]2O[C@H](C)C[C@H](N(C)C)[C@H]2O)[C@](C)(OC(=O)CCNCCC#Cc2cnc3ccccc3c2)C[C@@H](C)CN(C)[C@H](C)[C@@H](O)[C@]1(C)O , please.
2

---

Tested on: Streptococcus pyogenes
Test: Antibacterial activity against MLSB-resistant Streptococcus pyogenes 12-206 harboring ermA gene assessed as reduction in microbial growth
Assay type: functional
Can you tell me MIC for the items I'm about to list?
Could you give me the number in µg/mL? Just the number is fine.

Provide the documented MIC with Streptococcus pyogenes as the system for CC[C@H]1OC(=O)[C@H](C)[C@@H](OC(=O)Cc2ccccn2)[C@H](C)[C@@H](O[C@@H]2O[C@H](C)C[C@H](N(C)C)[C@H]2O)[C@](C)(OC(=O)CCN2CCN(c3cc4c(cc3F)c(=O)c(C(N)=O)cn4C3CC3)CC2)C[C@@H](C)CN(C)[C@H](C)[C@H]2OC(=O)O[C@@]21C
16

Provide the documented MIC with Streptococcus pyogenes as the system for CC[C@H]1OC(=O)[C@H](C)[C@@H](OC(=O)Cc2ccccn2)[C@H](C)[C@@H](O[C@@H]2O[C@H](C)C[C@H](N(C)C)[C@H]2O)[C@](C)(OC(=O)CCNCCC#Cc2ccc3ncccc3c2)C[C@@H](C)CN(C)[C@H](C)[C@@H](O)[C@]1(C)O
2

Provide the documented MIC with Streptococcus pyogenes as the system for CC[C@H]1OC(=O)[C@H](C)[C@@H](OC(=O)Cc2ccccn2)[C@H](C)[C@@H](O[C@@H]2O[C@H](C)C[C@H](N(C)C)[C@H]2O)[C@](C)(OC(=O)CCNCCC#Cc2ccc3c(c2)c(=O)c(C(=O)NC)cn3C2CC2)C[C@@H](C)CN(C)[C@H](C)[C@@H](O)[C@]1(C)O
32
